System: CAKI-1 renal
Experiment: NCI-60 one-dose screen, 48 h
Conditions: 10 µM unless noted
This is part of a sample that, as a whole, favours compounds with a hit. Of some 83,000 tested, about 20% had one in any assay. Calls of active or inactive are those of the source. The calls were made as follows: active = growth percent below 10; inactive = the rest.
Just give me one of these, please: yes = active, no = inactive

Query: Test call for this molecule, please: C=C(CBr)[C@@H]1CC[C@]2(C(=O)O)CC[C@]3(C)[C@H](CC[C@@H]4[C@@]5(C)CCC(=O)C(C)(C)[C@@H]5CC[C@]43C)[C@@H]12
Result: no

Query: Which outcome was entered for the molecule CS(=O)(=O)Nc1cc(-c2ccc3ncnc(Nc4ccc5c(cnn5Cc5cccc(F)c5)c4)c3c2)cnc1Cl in this test?
Result: yes

Query: Assay result, entry Fc1cnccc1C1CC(c2ccc(N3CCNCC3)cc2)=NN1 (centres undefined) — outcome?
Result: no

Query: // param item: N=C(N)c1ccc(-c2ccc(-c3ccc(Cl)cc3Cl)s2)cc1 ; yields the recorded call
Result: yes

Query: For O=C(CSc1nnc(-c2cnccn2)n1-c1ccccc1)c1ccc(Cl)cc1 , which call appears in the assay record?
Result: no

Query: Test call, this molecule: Cc1cc(N2CCN(CC(=O)Nc3ccc4c(ccn4C)c3)CC2)nc(N2CCCCCC2)n1
Result: no

Query: So what was the verdict on O=C(CSC(=S)n1cnnc1)NC(=O)c1ccccc1 in this test?
Result: no

Query: Recorded test outcome, item CCOC(=O)c1ccc(NC(=O)c2nc(-c3cc(OC)c(OC)c(OC)c3)n(-c3ccc(Cl)cc3)n2)cc1
Result: no

Query: # fetch the recorded call for CCC(C(=O)[C@@H](C)[C@@H](O)[C@H](C)[C@@H]1O[C@@H]([C@@H](CC)C(=O)ONC(=O)c2ccccc2)CC[C@@H]1C)[C@H]1O[C@]2(C=CC(=O)[C@]3(CC[C@@](C)([C@H]4CC[C@](O)(CC)[C@H](C)O4)O3)O2)[C@H](C)C[C@@H]1C (some centres undefined) here
Result: no

* * *

Please provide measured growth for the entries that follow.
Tested on: HS 578T breast
Assay: NCI-60 one-dose screen, 48 h (100 = growth as untreated, 0 = no growth, -100 = all killed)
Details: 10 µM unless noted
Compounds without any hit were thinned out: in the full panel of roughly 83,000, 20% have a hit. Active and inactive are the calls of the source. The calls were made as follows: active = growth percent below 10; inactive = the rest.

Query: Give HS 578T breast growth for Cn1cc(C(=O)c2nc(-c3c[nH]c4ccccc34)no2)c2cc(F)ccc21
Result: 44.8% (inactive)

Query: growth of CCN(CC)CCCCCNc1cc(OC(=O)c2ccc(Cl)cc2)cc2cccnc12 on HS 578T breast?
Result: 117% (inactive)

Query: Notebook: pull reported growth for HS 578T breast, entry O=C1C(Cl)=C(Nc2ccc(S(=O)(=O)N3CCOCC3)cc2)C(=O)c2ccccc21
Result: 79.2% (inactive)

Query: // map CC(=O)n1nc(C(=O)OC(C)(C)c2ccccc2)c2ccccc21 to recorded growth (system: HS 578T breast)
Result: 100% (inactive)

Query: Write down the reported growth of N#CSc1c[nH]c2cccc(/C=C/C(=O)/C=C(/C=C/c3cccc4[nH]cc(SC#N)c34)OB(F)F)c12 , test system: HS 578T breast.
Result: 26.3% (inactive)

Query: Quick check: growth on HS 578T breast, item Cc1cc(N2CCCCC2)cc(C)c1-c1csc(NC(=O)c2ccncc2)n1 ?
Result: 75.2% (inactive)

Query: Identify the measured growth of Nc1nc(-c2ccc(Cl)cc2)nc2c1sc(=S)n2-c1ccccc1 for HS 578T breast.
Result: 19.9% (inactive)

Query: Recorded growth for CCOC(=O)c1c(C(=O)c2cn(C)c3ccc(Br)cc23)c(-c2cn(C)c3ccc(Br)cc23)n(NC(=O)OC(C)(C)C)c1C with HS 578T breast, please?
Result: 46.8% [100 µM] (inactive)

Query: # returns recorded growth (system: HS 578T breast) for O=C(CSc1oc(-c2ccccc2)nc1S(=O)(=O)c1ccccc1)Nc1ccc(F)cc1
Result: 97.9% (inactive)

Query: Query the reported growth for HS 578T breast; item: NS(=O)(=O)c1ccc(N=Nc2c(O)n(Cc3ccccc3)c3ccc(Cl)cc23)cc1
Result: 44.8% (inactive)

Query: Identify the measured growth of Oc1c(Br)cc(Br)c2ccc(Cn3cc(-c4ccccc4C(F)(F)F)nn3)nc12 for HS 578T breast.
Result: 105% (inactive)

Query: What value of growth on HS 578T breast does Oc1ccc(Cl)cc1/C=N\NC(=S)N/N=C/c1cc(Cl)ccc1O have?
Result: 57.9% (inactive)

Query: Record CC(C)C1=NOC(=O)C1=Cc1cn(-c2ccccc2)nc1-c1ccc(F)cc1 : what is its growth with HS 578T breast?
Result: 49.6% (inactive)

Query: Identify the measured growth of N#CC1=C(N)Oc2c(c(=O)[nH]c3ccc(Cl)cc23)C12C(=O)c1ccccc1C2=O for HS 578T breast.
Result: 83.3% (inactive)

Query: Please tell me: growth of CN(C)Cc1ccc(O)c(C(=O)O)c1 , system HS 578T breast?
Result: 109% (inactive)

Query: Write down the reported growth of O=C1c2c(c3c4ccccc4[nH]c3c3ccc4ccccc4c23)C(=O)N1CCN1CCOCC1 , test system: HS 578T breast.
Result: 62.5% (inactive)
